Reference source for all entries: patent US20090060984A1

- Test system: Enterococcus fecalis
- TEST SUMMARY: Growth on surfactant/TSA agar plates; note: test concentration or dose not given here
- Type: cell-based
- EXPERIMENTAL CONTEXT: Enterococcus fecalis strain EM19 (first listing)
MEASURE: No Growth(−)/Full Growth(+), replicate columns

CCCCCCCCCCCCCOC(=O)CC(C(=O)OCCCCCCCCCCCCC)S(=O)(=O)[O-].[Na+] (stereo not drawn)	+
CCCCC(CC)COP(=O)([O-])OCCC(CC)CCC.[Na+] (stereo not drawn)	−
CC(C)CC(C)OC(=O)CC(C(=O)OC(C)CC(C)C)S(=O)(=O)[O-].[Na+] (stereo not drawn)	+
O=C(CC(C(=O)OC1CCCCC1)S(=O)(=O)[O-])OC1CCCCC1.[Na+] (stereo not drawn)	+
CCCCC(CC)COC(=O)CC(C(=O)OCC(CC)CCCC)S(=O)(=O)[O-].[Na+] (stereo not drawn)	−

Now let's try a different one.
Form: compound = CCCCCCCCCCCCCCCCCCNC(=O)CC(C(=O)[O-])S(=O)(=O)[O-].[Na+].[Na+] (stereo not drawn) ; No Growth(−)/Full Growth(+), replicate columns = −
